So I've got a bunch of molecules here, and I need their viability, T/C values.
tested on: OVCAR-5 complex spheroid (HUVEC/MSC), viability % T/C; assay: Anticancer human tumor OVCAR-5 cell line growth inhibition [Asc]; conditions: second compound 10 µM; first compound 0.0316 µM; active compounds read low;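 further: spheroids exposed to agents for 7 days before readout; 100% = DMSO vehicle-treated wells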
The reply should be a number in %, with the unit left off.

Task: Give OVCAR-5 complex spheroid (HUVEC/MSC), viability % T/C viability, T/C for COc1c(OCCCN2CCOCC2)ccc2c3n(c(=NC(=O)c4cnc(N)nc4)nc12)CCN3 + Cc1c(S(C)(=O)=O)c(-c2cc(F)cc(N3CCN(c4ccc(NS(=O)(=O)c5ccc(NC(CCN6CCC(C(=O)OCCCP(=O)(O)O)CC6)CSc6ccccc6)c(S(=O)(=O)C(F)(F)F)c5)cc4)CC3)c2)c(-c2ccc(Cl)cc2)n1C(C)C
Output: 31.2

Task: Form field - read-out: viability, T/C; system: OVCAR-5 complex spheroid (HUVEC/MSC), viability % T/C; submitted item: Cn1ncnc1[C@H]1c2n[nH]c(=O)c3cc(F)cc(c23)N[C@@H]1c1ccc(F)cc1 + Cc1c(S(C)(=O)=O)c(-c2cc(F)cc(N3CCN(c4ccc(NS(=O)(=O)c5ccc(NC(CCN6CCC(C(=O)OCCCP(=O)(O)O)CC6)CSc6ccccc6)c(S(=O)(=O)C(F)(F)F)c5)cc4)CC3)c2)c(-c2ccc(Cl)cc2)n1C(C)C
Output: 97.9

Task: viability, T/C of C=C(F)C(=O)N1CCN(c2nc(OCC3CCCN3C)nc3c2CCN(c2cccc4cccc(Cl)c24)C3)CC1CC#N (stereo not drawn) + Cc1c(S(C)(=O)=O)c(-c2cc(F)cc(N3CCN(c4ccc(NS(=O)(=O)c5ccc(NC(CCN6CCC(C(=O)OCCCP(=O)(O)O)CC6)CSc6ccccc6)c(S(=O)(=O)C(F)(F)F)c5)cc4)CC3)c2)c(-c2ccc(Cl)cc2)n1C(C)C on OVCAR-5 complex spheroid (HUVEC/MSC), viability % T/C?
Output: 111

Each recorded value in this set is attributed to PubChem BioAssay AID1963436.
